These measurements were taken from the supplement of paper PMC9170038.

# apparent KD of MS2 coat protein listing for each entry below
system: MS2 coat protein; assay: apparent KD of MS2 coat protein, switch OFF state (with FMN for OFF switches, without FMN for ON switches); designed switch direction (-1 OFF switch, 1 ON switch): 1; higher = weaker reporter binding; settings: FMN input: 0 or 200 uM; Eterna round: R93 (includes R88 designs)
Hi! Could you send only the number? It should be in nM, unit omitted.

Worked examples follow.
# sequence text, apparent KD of MS2 coat protein [nM]
data = [
    ("AGGAAACAUGAGGAUCACCCAUGUAAAGAAGGGUGAGGAUAUACAAAGAAAAGAAAGAAAGUAGAAGGCACAAAAG [Mongoose]", 113),
    ("ACAAACAAAAAAGAGGAUAUCCUAAAUAAAACAUGAGGAUCACCCAUGUAAAAAAUAAUAAAAUGGGAGAAGGCUUACAACAAAC [SS2 M 24]", 21),
    ("AGAAAACAUGAGGAUCACCCAUGUAGGAAUAUGGGAGGAUAUACAGAGACGAAAGUCAGAGUAGAAGGCCUAAGAA [salish99-SS1-088]", 96.7),
    ("AUAAAAUAAAGGGAGGAUAUCUAUAAUAAAACAUGAGGAUCACCCAUGUUAAAAAGAAGAUCAUGGGAGAAGGCCUAAAAUAAAU [SS2 M 30]", 46.1),
    ("AAAACACAUGAGGAUCACCCAUGUAAAAACAAGGGAGGAUAUGCUUGGAAAACAUGCUAUGCAGAAGGCUCAAGUG [SS1 - 11]", 31.1),
    ("AAAUAACAUGAGGAUCACCCAUGUUACAACAAUACAGGAUAUGUGGGUGAAAAUAGCAUGACAGAAGGGUACUGUA [SameState1 Malc#33]", 124),
]

Lookup result for CAGAGACAUGAGGAUCACCCAUGUAGGAUUAUGGGAGGAUAUACAAAGACGAGAGUCAGAGUAGAAGGCCUAGGAU [salish99-ss1-142] ; measured apparent KD of MS2 coat protein: 52.7

---

system: MS2 coat protein; assay: apparent KD of MS2 coat protein; designed switch direction (-1 OFF switch, 1 ON switch): 1; higher = weaker reporter binding; conditions: Eterna round: R95; input ligand: microRNA oligo, concentration not stated
property measured: apparent KD of MS2 coat protein (nM)
Hi! Could you send only the number? It should be in nM, unit omitted.

Worked examples follow.
# sequence text, unit text, apparent KD of MS2 coat protein
data = [
    ("AUAAAACAUGAGGAUCACCCAUGUCAACAAAGUCGAGGAUAUGGGCAAAUAAAAUAAUAACCAGAAGGCGAAUAAU [salish99_ss1_r3_018] (puzzle: Same State 1)", "nM", 232),
    ("AGAUGGUGUGGAAAGGAUAUACUGUUGAGGACAUGAGGAUCACCCAUGUGGUAGAGGAGGUAAGGGUAGAAGGUUCGGGAUUGGU [JR_SS@_Sub020] (puzzle: Same State 2)", "nM", 32.3),
]

Lookup result for AUAAAACAUGAGGAUCACCCAUGUCAACAAAGUCGAGGAUAUGGGCAAAUAAAAUAAGAACCAGAAGGCGAAUAAU [salish99_SS1_r3_001] (puzzle: Same State 1) ; measured apparent KD of MS2 coat protein: 233

Lookup result for UUGCAGUCAGGUGAGGAUAUCAUGAAUUUAACAUGAGGAUCACCCAUGUGCUGCCUUGCAGCAUAUGAGAAGGCACCUGGCUGCU [JL-ss2-3.02 Brourd Mod] (puzzle: Same State 2) ; measured apparent KD of MS2 coat protein: 923

Lookup result for UAGUUACUAUCUCAGGAUAUCAUGUCAAAGACAUGAGGAUCACCCAUGUACCAGGAAACUGGUUAUGAGAAGGGAGAUAGUAACA [Mat - Same State 2 - Mod - D56] (puzzle: Same State 2) ; measured apparent KD of MS2 coat protein: 34.2
